- TEST DESCRIPTION: Clarity of test compound solutions at […] (aqueous solubility)
- CONDITION NOTES: […] active-form equivalents, pH 7 (50 mM phosphate), after 24 hours
MEASURE: Aqueous Solubility pH~7 (visual clarity)

Worked examples follow.
[[record]]
smiles_str = "COc1c(N2CCC/C(=C(\\F)CNC(=O)[C@@H](N)CCCCN)C2)c(F)cc2c(=O)c(C(=O)O)cn(C3CC3)c12.Cl.Cl"
result = "Yes"

[[record]]
smiles_str = "COc1c(N2CCC/C(=C(\\F)CNC(=O)[C@@H](N)C(C)C)C2)c(F)cc2c(=O)c(C(=O)O)cn(C3CC3)c12.Cl"
result = "No"

[[record]]
smiles_str = "COc1c(N2CCC/C(=C(\\F)CNC(=O)CN)C2)c(F)cc2c(=O)c(C(=O)O)cn(C3CC3)c12.Cl"
result = "No"

[[record]]
smiles_str = "COc1c(N2CCC/C(=C(\\F)CNC(=O)OCc3oc(=O)oc3C)C2)c(F)cc2c(=O)c(C(=O)O)cn(C3CC3)c12"
result = "No"


Kindly consider the entry below.
Please report the recorded Aqueous Solubility pH~7 (visual clarity) for `CN[C@@H](C)C(=O)NC/C(F)=C1/CCCN(c2c(F)cc3c(=O)c(C(=O)O)cn(C4CC4)c3c2OC)C1.Cl` .
Yes
